# assayComment: Pharmacokinetics in humans, MRTX1133 formulation, oral, single and multiple doses
# Assay type: in vivo
# studyConditions: human, plasma, po, 400 mg, multiple oral doses of 400 mg BID with a low-fat meal; geometric mean of subjects; read-out: Cmax, Geo Mean
measurementLabel: Cmax (ng/mL)

C#Cc1c(F)ccc2cc(O)cc(-c3ncc4c(N5C[C@H]6CC[C@@H](C5)N6)nc(OC[C@@]56CCCN5C[C@H](F)C6)nc4c3F)c12 [MRTX1133]; 102

---

# assayComment: Pharmacokinetics in humans, MRTX1133 formulation, oral, single and multiple doses
# Type: in vivo
# studyConditions: human, plasma, po, 400 mg, single oral dose of 400 mg, fasted; individual subjects; read-out: T1/2 (converted)
measurementLabel: half-life (h)

C#Cc1c(F)ccc2cc(O)cc(-c3ncc4c(N5C[C@H]6CC[C@@H](C5)N6)nc(OC[C@@]56CCCN5C[C@H](F)C6)nc4c3F)c12; 33.3

The measurements presented in this section are drawn from patent US20250120981A1.
